Kindly supply the reported inhibition at 10 µM values for the records listed here.
- system tested: UniProt:Q06187
- experiment description: biochemical
- condition label: read-out: BTK inhibition (%), 0.75 uM BTK, […] probe 3l, 15 min preincubation
Give bare numbers, in %.

Report inhibition at 10 µM for each item below.
1. OC[C@H]1O[C@@](CO)(OC[C@@]2(O[C@H]3O[C@H](CO)[C@@H](O)[C@H](O)[C@H]3O)O[C@H](CO)[C@@H](O)[C@@H]2O)[C@@H](O)[C@@H]1O [PCM-0216401]
2. C[C@@H]1O[C@@H](OC[C@H]2O[C@@H](Oc3cc(O)c4c(c3)O[C@H](c3ccc(O)c(O)c3)CC4=O)[C@H](O)[C@@H](O)[C@@H]2O)[C@H](O)[C@H](O)[C@H]1O [PCM-0216467]
3. CC1=C(C/C=C(\C)CCC[C@H](C)CCC[C@H](C)CCCC(C)C)C(=O)c2ccccc2C1=O [PCM-0216261]

1: 21.6; 2: 10; 3: 7.8

For every listed record, write down its inhibition at 10 µM.
1. OCC(CO)N[C@H]1C[C@](O)(CO)[C@@H](O)[C@H](O)[C@H]1O [PCM-0214770]
2. COC(=O)N[C@H](C(=O)N1CC2(CC2)C[C@H]1c1ncc(-c2ccc3c(c2)C(F)(F)c2cc(-c4ccc5nc([C@@H]6[C@H]7CC[C@H](C7)N6C(=O)[C@@H](NC(=O)OC)C(C)C)[nH]c5c4)ccc2-3)[nH]1)C(C)C [PCM-0215396]
3. OCCOCCN1CCN(C(c2ccccc2)c2ccc(Cl)cc2)CC1 (stereo not drawn) [PCM-0085866]
4. O=C(NCCCNc1nc(Nc2cccc(CN3CCOCC3)c2)ncc1C1CC1)C1CCC1 [PCM-0215642]
5. CC(C)OC(=O)C(C(=O)OC(C)C)=C1SC=CS1 [PCM-0094945]
6. C=C1C(=O)O[C@@H]2/C=C(\C)CC/C=C(\C)CC[C@@H]12 [PCM-0214614]
7. COc1cc2c3c(c1OC)-c1ccccc1C[C@H]3N(C)CC2 [PCM-0215922]
8. Cc1cc(-c2cc(C)c(NCCCS(=O)(=O)O)c(C)c2)cc(C)c1N [PCM-0216076]

1. -8.6
2. 74.9
3. 4.1
4. 21.6
5. 3.9
6. 46.7
7. -12.8
8. 7.7

I have 4 compounds here; please give me inhibition at 10 µM for each one.
1. COc1ccc(C(=O)CC2(O)C(=O)Nc3c(Cl)ccc(Cl)c32)cc1 (stereo not drawn) [PCM-0215405]
2. O=C1CCC[C@@H]2[C@H]3CCCN4CCC[C@@H](CN12)[C@@H]34 [PCM-0094866]
3. NCCCCCC(=O)O [PCM-0064402]
4. COc1cc(O)c2c(=O)c(O[C@@H]3O[C@H](CO)[C@@H](O)[C@H](O)[C@H]3O)c(-c3ccc(O[C@@H]4O[C@H](CO)[C@@H](O)[C@H](O)[C@H]4O)cc3)oc2c1 [PCM-0216473]

8.5
11.7
-2.3
7.7

* * *

- system tested: BTK (Homo sapiens)
- experiment description: biochemical
- condition label: read-out: BTK inhibition (%), 0.75 uM BTK, […] probe 3l, 15 min preincubation
result type: inhibition at 10 µM (%)
Give bare numbers, in %.

// below: answered molecules
CC(C)(C)C(=O)Nc1ccc2c(c1)C(=O)C(=O)c1ccccc1-2 [PCM-0215348] :: 10.8
Cc1cccc(C(C)c2cnc[nH]2)c1C (stereo not drawn) [PCM-0095548] :: -14.8
CN1CCN(c2nc(C3=C(c4c[nH]c5ccccc45)C(=O)NC3=O)c3ccccc3n2)CC1 [PCM-0095375] :: 57.9
O=C(O)Cc1ccc(O)cc1 [PCM-0215121] :: 25.7
NC(N)=NCCCC(N)C(=O)O (stereo not drawn) [PCM-0064685] :: -17

# per-item lookup of inhibition at 10 µM; items listed below
1. Cc1ccc(C(=O)Nc2cccc(C(F)(F)F)c2)cc1Nc1nc(-c2cccnc2)nc2c1cnn2C [PCM-0095241]
2. CC(=O)Nc1cccc(-n2c(=O)n(C3CC3)c(=O)c3c(Nc4ccc(I)cc4F)n(C)c(=O)c(C)c32)c1 [PCM-0095350]
3. NC(N)=Nc1nc(CSCC/C(N)=N/S(N)(=O)=O)cs1 [PCM-0214735]
4. COc1cc2c(cc1OC)[C@@H]1Cc3ccc(OC)c(OC)c3CN1CC2 [PCM-0094863]

4.8
-10.3
-26.2
3.9

* * *

I'd appreciate it if you could supply inhibition at 10 µM values for the items below.
- system tested: UniProt:Q06187
- experiment description: biochemical
- condition label: read-out: BTK inhibition (%), 0.75 uM BTK, […] probe 3l, 15 min preincubation
Answers are plain numbers, in %.

COc1c(O)cc2c(c1O)C(=O)c1c(cc(C)c(O)c1OC)C2=O [PCM-0216431] :: 28.6
OC(c1cc(-c2ccc(Cl)cc2)nc2ccccc12)C1CCCCN1 (stereo not shown) [PCM-0215603] :: 19.3
CNCC(=O)c1ccc(O)c(O)c1 [PCM-0090552] :: 10.9
c1ccc2[nH]c(-c3cscn3)nc2c1 [PCM-0086067] :: -17.1
Clc1cccc(-c2nnnn2Cc2cccnc2)c1Cl [PCM-0215469] :: -0.8

Okay, here is my list. What is inhibition at 10 µM for each of these?
1. Cc1nc(NC(=O)N2CCC[C@H]2C(N)=O)sc1-c1ccnc(C(C)(C)C(F)(F)F)c1 [PCM-0095427]
2. O=C(O)c1cc(=O)cc(C(=O)O)o1 [PCM-0216206]
3. CC(CNC(=O)c1cccnc1)NC(=O)c1cccnc1 (stereo not shown) [PCM-0214789]
4. Cc1cnc(C(=O)O)c[n+]1[O-] [PCM-0086103]
5. COC(=O)c1cc(O)c(O)c(O)c1 [PCM-0215013]

-7.6
-6.2
-8.6
3.1
17.9

* * *

- system tested: BTK (Homo sapiens)
- experiment description: biochemical
- condition label: read-out: BTK inhibition (%), 0.75 uM BTK, […] probe 3l, 15 min preincubation
Task for the reader: assign each of the following compounds its reported inhibition at 10 µM.
Numbers only, in %.

O=C(NCCO[N+](=O)[O-])c1cccnc1 :: -5.4
NS(=O)(=O)c1cc(Cl)c(Cl)c(S(N)(=O)=O)c1 :: -4.7
Cc1cc(Nc2ncc3c(n2)N(C)C(=O)N(c2cc(NC(=O)c4cccc(C(F)(F)F)c4)ccc2C)C3)n(C)n1 :: 104

Required: inhibition at 10 µM, one value per compound below.
1. Cc1ccc(Nc2ncc3c(n2)N(C)C(=O)N(c2cc(NC(=O)c4cccc(C(F)(F)F)c4)ccc2C)C3)cn1
2. COC(=O)C1=C(C)NC(C)=C(C(=O)OC(C)C)C1c1cccc2nonc12 (centres unmarked)
3. C[C@H](Nc1ncnc2nc[nH]c12)c1cc2cccc(Cl)c2c(=O)n1-c1ccccc1

36.6
-2.3
2.1

Provide inhibition at 10 µM values for the following items, in order.
1. COc1cc2ncnc(Nc3ccc(O)c(Br)c3)c2cc1OC
2. C[C@]12CC[C@H]3[C@@H](CC[C@@]45O[C@@H]4C(O)=C(C#N)C[C@]35C)[C@@H]1CC[C@@H]2O

33.8
13.2

* * *

- system tested: BTK (Homo sapiens, UniProt Q06187)
- Sequence (Q06187 402-655 limits assumed): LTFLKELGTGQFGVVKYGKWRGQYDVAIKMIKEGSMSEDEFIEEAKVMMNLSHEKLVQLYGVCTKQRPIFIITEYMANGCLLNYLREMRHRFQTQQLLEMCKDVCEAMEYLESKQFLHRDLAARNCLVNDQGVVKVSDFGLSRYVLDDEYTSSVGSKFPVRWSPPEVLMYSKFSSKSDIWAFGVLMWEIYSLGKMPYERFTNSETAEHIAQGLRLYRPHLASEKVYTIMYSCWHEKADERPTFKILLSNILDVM
- experiment description: biochemical
- condition label: read-out: BTK inhibition (%), 0.75 uM BTK, […] probe 3l, 15 min preincubation
Exercise: state measured inhibition at 10 µM for each of the compounds provided.
One number for each entry, in %.

A selection of reference data follows.
CCCCN(Cc1ccc(C(=O)NO)cc1)C(=O)Nc1ccccc1 [PCM-0215294] :: 23.9
CC(C)OC(=O)C(C)(C)Oc1ccc(C(=O)c2ccc(Cl)cc2)cc1 [PCM-0065053] :: 8.6
C[N+](C)(C)CCOP(=O)([O-])OP(=O)(O)OC[C@H]1O[C@@H](n2ccc(N)nc2=O)[C@H](O)[C@@H]1O [PCM-0215877] :: 0.9
COc1ccc2c(c1OC)CN1CCc3cc4c(cc3C1C2)OCO4 (stereo not shown) [PCM-0216126] :: 13.1
OC[C@H]1O[C@H](OC[C@H]2O[C@H](OC[C@H]3O[C@H](O[C@]4(CO)O[C@H](CO)[C@@H](O)[C@@H]4O)[C@H](O)[C@@H](O)[C@@H]3O)[C@H](O)[C@@H](O)[C@H]2O)[C@H](O)[C@@H](O)[C@H]1O [PCM-0216230] :: 17.8

The following compounds each have a reported value; give each one's inhibition at 10 µM.
1. C=CCn1c(=O)c2cnc(Nc3ccc(N4CCN(C)CC4)cc3)nc2n1-c1cccc(C(C)(C)O)n1 [PCM-0095195]
2. CCCCOC(=O)c1ccccc1Nc1cccc(C(F)(F)F)c1 [PCM-0216094]

1: 37.2; 2: 21.4
